Values compiled from PubChem BioAssay (NCI).

# METHOD NOTES: NCI Yeast Anticancer Drug Screen. Data for the cln2 rad14 strain (AID 165)
# CONDITION DESCRIPTION: S. cerevisiae cln2 rad14 strain, at 5.0 µM (retest, dose inferred, filed as 0.5), stronger effect = higher value
About 79,000 compounds went through this panel and 15% of them were active in at least one assay; those are over-represented in the sample as a whole.
Assign class by growth inhibition: not lower than 40% means Met; lower than 40% means Not met.

MOLECULE: ONC(=Nc1ccccc1)c1ccccc1
LABEL CLASS: Not met

QUERY: API: above_or_equal(metric=growth inhibition, cutoff=40%) for item O=C(NC1=Nc2c(ncn2COCCO)S(=O)(=O)[N-]1)c1ccccc1.[Ag+]
RESULT: Met

QUERY: Check the entry CN(C)CCOC(=O)c1ccccc1 : does growth inhibition equal or exceed 40%?
RESULT: Not met

QUERY: Please indicate if the recorded growth inhibition for CC(CN(C)C)C(/C=C/c1ccc(F)cc1)=N\Nc1ccccc1 (stereo unspecified) meets or exceeds 40%.
RESULT: Not met

QUERY: Reported growth inhibition reaches at least 40% for COc1cccc2c1C(=O)c1c(O)c3c(c(O)c1C2=O)CC(O)(C(C)=O)CC3OC1CC(N/C(C)=C/C(C)=O)C(O)C(C)O1 (stereo unspecified) ?
RESULT: Met
